- system_under_test: GFRα1-RET (Homo sapiens, UniProt P56159)
- Sequence (P56159 25-429 limits assumed): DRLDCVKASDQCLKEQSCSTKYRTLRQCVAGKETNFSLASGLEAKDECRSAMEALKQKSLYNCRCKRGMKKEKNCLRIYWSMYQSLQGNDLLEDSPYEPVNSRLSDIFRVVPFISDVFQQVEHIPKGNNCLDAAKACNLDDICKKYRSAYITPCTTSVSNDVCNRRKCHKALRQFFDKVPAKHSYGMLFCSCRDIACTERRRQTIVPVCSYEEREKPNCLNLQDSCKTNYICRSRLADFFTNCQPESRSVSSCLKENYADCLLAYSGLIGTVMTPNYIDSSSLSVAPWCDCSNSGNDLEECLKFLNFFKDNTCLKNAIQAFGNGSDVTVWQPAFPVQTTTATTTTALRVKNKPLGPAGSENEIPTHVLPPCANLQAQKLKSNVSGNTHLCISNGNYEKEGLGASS
- experimental_details: Elk1 reporter-gene (luciferase) assay in cells expressing GFRα1-RET
- assay_setup: MG87 murine fibroblasts stably transfected with PathDetect Elk-1, GFRα1 and RET, 6 concentrations, agonist/activator activity
measured_metric: EC50

// solved cases for EC50 follow
[
  {
    "compound": "CN1CCc2cc(S(=O)(=O)N3CCC(c4ccccc4)CC3)cc(N3[C@@H]4CC[C@H]3CN(C(=O)c3cc(F)c(F)cc3Cl)C4)c21",
    "system_under_test": "GFRα1-RET (Homo sapiens, UniProt P56159)",
    "EC50": "< 1000 nM"
  },
  {
    "compound": "CN(C1(C)COC1)S(=O)(=O)c1cc(Cl)c(O)c(N2[C@@H]3CC[C@H]2CN(C(=O)c2ccc(F)cc2Cl)C3)c1",
    "system_under_test": "GFRα1-RET (Homo sapiens, UniProt P56159)",
    "EC50": "< 1000 nM"
  },
  {
    "compound": "CCCN(C)S(=O)(=O)c1ccc(OC)c(N2CCN(C(=O)c3ccc(F)cc3C(F)(F)F)CC2C(F)(F)F)c1 (racemic)",
    "system_under_test": "GFRα1-RET (Homo sapiens, UniProt P56159)",
    "EC50": "1000 to 10000 nM"
  },
  {
    "compound": "CN(CC1CC1)S(=O)(=O)c1cc(Cl)c(O)c(N2[C@@H]3CC[C@H]2CN(C(=O)c2ccc(F)cc2Cl)C3)c1",
    "system_under_test": "GFRα1-RET (Homo sapiens, UniProt P56159)",
    "EC50": "< 1000 nM"
  },
  {
    "compound": "CC1(NS(=O)(=O)c2cc(Cl)c(O)c(N3[C@@H]4CC[C@H]3CN(C(=O)c3ccc(F)cc3Cl)C4)c2)CC1",
    "system_under_test": "GFRα1-RET (Homo sapiens, UniProt P56159)",
    "EC50": "1000 to 10000 nM"
  }
]

EC50 for COc1ccc(S(=O)(=O)N2CCC(c3cccc(C#N)c3)CC2)cc1N1[C@@H]2CC[C@H]1CN(C(=O)c1ccc(F)cc1Cl)C2 is < 1000 nM

EC50 for CCCN(C)S(=O)(=O)c1ccc(OC)c(N2CCN(C(=O)c3ccc(F)cc3C(F)(F)F)CC2COC)c1 (racemic) is 10000 to 50000 nM

EC50 for COCCOc1c(Cl)cc(S(=O)(=O)NC(C)(C)C)cc1N1[C@@H]2CC[C@H]1CN(C(=O)c1ccc(F)cc1Cl)C2 is < 1000 nM

EC50 for COc1ccc(S(=O)(=O)N2CCC(Oc3ccccc3)C2)cc1N1C2CCC1CN(C(=O)c1ccc(F)cc1Cl)C2 (racemic) is < 1000 nM

EC50 for O=C(c1ccc(F)cc1Cl)N1C[C@H]2CC[C@@H](C1)N2c1cc(S(=O)(=O)N2CCC(c3ccccc3)CC2)cc2c1OCCO2 is < 1000 nM

EC50 for CCCN(C)S(=O)(=O)c1ccc(OCOC)c(N2[C@@H]3CC[C@H]2CN(C(=O)c2ccc(F)cc2Cl)C3)c1 is 1000 to 10000 nM

EC50 for CN(C(C)(C)C)S(=O)(=O)c1cc(Cl)c(OCc2ccncc2)c(N2[C@@H]3CC[C@H]2CN(C(=O)c2ccc(F)cc2Cl)C3)c1 is < 1000 nM

Entry source: patent US20260022096A1
